# assay.explanation: Pharmacokinetic profile after intravenous and oral administration
# Assay type: in vivo
# experimental.conditions: male, Sprague-Dawley, rat, plasma; rats, PO 5 mg/kg vs IV 1 mg/kg; read-out: Oral Bioavailability (% F)

| compound | bioavailability |
| --- | --- |
| COc1ccc(CCNC(=O)c2ccc(-c3ncccc3Cl)cc2)cc1OC [Compound 18] | 30.1% |

* * *

# assay.explanation: Pharmacokinetic profile after intravenous and oral administration
# Assay type: in vivo
# experimental.conditions: male, Sprague-Dawley, rat, plasma; rats; route not stated (IV 1 mg/kg, PO 5 mg/kg); read-out: half life (t½) (converted)

| smiles.str | half-life / h |
| --- | --- |
| COc1ccc(CCNC(=O)c2ccc(-c3ncccc3Cl)cc2)cc1OC | 3.71 |

* * *

# assay.explanation: Pharmacokinetic profile after intravenous and oral administration
# Type: in vivo
# experimental.conditions: male, Sprague-Dawley, rat, plasma; rats; route not stated (IV 1 mg/kg, PO 5 mg/kg)

| molecule | unit.info | Cmax |
| --- | --- | --- |
| COc1ccc(CCNC(=O)c2ccc(-c3ncccc3Cl)cc2)cc1OC [Compound 18] | nM | 1750 |

* * *

# assay.explanation: Pharmacokinetic profile after intravenous and oral administration
# Assay type: in vivo
# experimental.conditions: male, Sprague-Dawley, rat, plasma; rats; route not stated (IV 1 mg/kg, PO 5 mg/kg)

| smiles.str | unit.info | Tmax |
| --- | --- | --- |
| COc1ccc(CCNC(=O)c2ccc(-c3ncccc3Cl)cc2)cc1OC | h | 3 |

* * *

# assay.explanation: Pharmacokinetic profile after intravenous and oral administration
# Format: in vivo
# experimental.conditions: male, Sprague-Dawley, rat, plasma; rats; route not stated (IV 1 mg/kg, PO 5 mg/kg); read-out: Clearance (Cl) (converted)
property.label: clearance (L/h/kg)

| molecule | test.value |
| --- | --- |
| COc1ccc(CCNC(=O)c2ccc(-c3ncccc3Cl)cc2)cc1OC [Compound 18] | 0.53 |

* * *

# tested.on: CYP1A2 (Homo sapiens)
# Sequence (P05177 1-516): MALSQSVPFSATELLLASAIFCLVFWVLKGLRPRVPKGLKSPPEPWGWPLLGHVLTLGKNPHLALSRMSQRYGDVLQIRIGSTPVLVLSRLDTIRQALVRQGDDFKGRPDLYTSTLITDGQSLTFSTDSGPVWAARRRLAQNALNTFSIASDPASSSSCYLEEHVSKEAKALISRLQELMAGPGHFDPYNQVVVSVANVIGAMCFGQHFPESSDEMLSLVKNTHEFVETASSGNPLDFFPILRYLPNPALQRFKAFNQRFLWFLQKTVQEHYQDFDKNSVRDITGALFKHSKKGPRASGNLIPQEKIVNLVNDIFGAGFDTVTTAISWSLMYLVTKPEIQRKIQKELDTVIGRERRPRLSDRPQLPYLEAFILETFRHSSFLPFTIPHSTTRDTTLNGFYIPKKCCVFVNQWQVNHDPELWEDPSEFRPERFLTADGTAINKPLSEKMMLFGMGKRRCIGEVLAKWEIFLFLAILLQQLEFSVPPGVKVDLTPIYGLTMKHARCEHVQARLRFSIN
pIC50: −log10 of the molar value.

| molecule | tested.on | pIC50 |
| --- | --- | --- |
| COc1ccc(CCNC(=O)c2ccc(-c3ncccc3Cl)cc2)cc1OC [Compound 18] | CYP1A2 (Homo sapiens) | 4.01 |
